// data source = patent US20150086555A1

biological target: recombinant homotrimeric HA A/duck/Yangzhou/02/05 H8N4 (Influenza A virus A/duck/Yangzhou/02/2005(H8N4)); assay: protein microarray, purified IgG, trimeric HA; details: remark: other sources report otherwise
Use 300 RLU as the dividing line for Trimeric HA Binding: RLU, with the line itself on the Met side and lower values as Not met.

[
  {
    "binder": "TCN-550 (5096_F06) (antibody, V domains shown) VH: QVQLQESGPGLVKPSETLSLTCTVSGASINSHYWSWIRQPPGKGLEWIGYVYYSGSTTYNPSLKSRVTLSVDTSKNQFSLNLSSVTAADTAFYYCARHPYDVLTGSGDWFDPWGQGTLVTVSS VL: SYVLTQAPSVSVAPGQTARITCGGNAIGSKKVHWYQHKAGQAPVLVVYDDTDRPSGIPERFSGSNSWSTATLTINRVEAGDEADYYCQVWDFTIDHVVFGGGTKLTVL",
    "class": "Not met"
  }
]

// next entry
I'd appreciate it if you could say whether TCN-554 (5277_M05) (antibody, V domains shown) VH: QVQLVQSGADLKKPGASVKVSCKASGYTFTDYYIHWVRQAPGQGLEWMGWINPESGDTKYAQKFQGRVTMTRDTSITTAYMELGRLRSDDTAVYYCARDVSTTWSWFAPWGQGTLVTVSS VL: DIVMTQSPDSLAVSLGERATINCRSSQSIFHNSNNENYLAWYQQKPGQPPKLLIYWASTRESGVPDRFSGSGSGTDFTLTISSLQAEDVAVYFCQQYYNAPLTFGGGTKVEIK has Trimeric HA Binding: RLU at least equal to 300 RLU. Met
